# credit: the CombiSolv-Exp solvation set (Vermeire and Green 2021)

experiment description: solvent given as SMILES
condition label: in CN(C)C=O
Please enter Satisfied where solvation free energy, 298 K is greater than or equal to -2 kcal/mol, and Not satisfied where it is lower.

Use these answered entries as a reference point.
compound	assigned category
C#C	Satisfied
c1ccc2cc3ccccc3cc2c1	Not satisfied
C1CCCCCCC1	Not satisfied
CC=CC	Not satisfied
FC(Cl)C(F)(F)F (stereo not given)	Not satisfied
CC(C)=O	Not satisfied

Please indicate if the recorded solvation free energy, 298 K for FCF meets or exceeds -2 kcal/mol.
Satisfied

Please indicate if the recorded solvation free energy, 298 K for O=C(O)c1ccc(Cl)c([N+](=O)[O-])c1 meets or exceeds -2 kcal/mol.
Not satisfied

Please indicate if the recorded solvation free energy, 298 K for COC(=O)c1cc([N+](=O)[O-])cc([N+](=O)[O-])c1 meets or exceeds -2 kcal/mol.
Not satisfied

Please indicate if the recorded solvation free energy, 298 K for OCC(O)C(O)C(O)CO (stereo not given) meets or exceeds -2 kcal/mol.
Not satisfied

---

experiment description: solvent given as SMILES
condition label: in CN(C)C=O
Kindly state solvation free energy, 298 K for each of the entries shown.
Give bare numbers, in kcal/mol.

Example cases with answers are listed next.
molecule	readout units	solvation free energy, 298 K
CCCCCCCCC	kcal/mol	-4.3
CC#N	kcal/mol	-4.65
CCCCCCCCCCCCCCCCCCCCCCC	kcal/mol	-15.8
C1=CCCCCCC1	kcal/mol	-4.77
CCOCC	kcal/mol	-2.81

Would you be so kind as to report solvation free energy, 298 K for each listed record?
1. CC(C)CCC(C)C
2. CCO
3. C=CC(C)C

-3.35
-5.1
-2.09

Would you be so kind as to report solvation free energy, 298 K for each listed record?
1. FC(F)(F)Cl
2. CCCCCCC

0.08
-3.16

Would you be so kind as to report solvation free energy, 298 K for each listed record?
1. CCCCCCCCCCCCCCCCCCCCCC
2. CCC(C)O (stereo not given)

1: -15; 2: -5.67

---

Kindly state solvation free energy, 298 K for each of the entries shown.
experiment description: solvent given as SMILES
condition label: in CCCCCC(C)=O
One number for each entry, in kcal/mol.

Example cases with answers are listed next.
sample smiles	solvation free energy, 298 K (kcal/mol)
CCCCCCCCC	-5.45
CCCCCC	-3.54
CCCCC	-2.92
CCCCCCC	-4.2
CC(C)C(C)C(C)C	-4.51
CCCCCCCC	-4.83

// switching to the query compound
For CC(C)CCC(C)C the compound record lists solvation free energy, 298 K as -4.4

---

experiment description: solvent given as SMILES
condition label: in NCCO
Mark each entry criterion met if its solvation free energy, 298 K sits below -1 kcal/mol, and criterion not met for all others.

Use these answered entries as a reference point.
sample smiles	assigned category
C#CCCCCC	criterion met
C1CCCCCCC1	criterion met
CCCCCC	criterion not met
CCCCCCC	criterion met
CCCCC	criterion not met
CCCCCCCCC	criterion met

Please find the next compound below.
Is the reported solvation free energy, 298 K for CCCCCCCC strictly below -1 kcal/mol?
criterion met

---

experiment description: solvent given as SMILES
condition label: in C1CCCCC1
Kindly state solvation free energy, 298 K for each of the entries shown.
The reply should consist of the numeric value with the unit placed after it.

Would you be so kind as to report solvation free energy, 298 K for each listed record?
1. CCO
2. CNC1CCCCC1
3. CC(=O)CC(C)=O
4. CC(=O)N(C)C
5. CCCCCCC
6. CC(C)C(C)C(C)C
7. C1CCCNCC1
8. NC1CCCCC1

1: -2.32 kcal/mol; 2: -6.05 kcal/mol; 3: -4.89 kcal/mol; 4: -4.97 kcal/mol; 5: -4.83 kcal/mol; 6: -5.1 kcal/mol; 7: -5.66 kcal/mol; 8: -5.47 kcal/mol

Would you be so kind as to report solvation free energy, 298 K for each listed record?
1. CC(C)CCC(C)C
2. C[N+](=O)[O-]

1. -5.02 kcal/mol
2. -2.81 kcal/mol
